Experiment: chemical genetic growth profiling, strain panel (AID 1159580);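 further: tested at 20 µM; growth read once vehicle control cultures reached saturation at 30 °C; 1 = growth at the plate median or of vehicle wells; lower values mean less growth of the strain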
Details: S. cerevisiae deletion strains, growth OD, locus YGR040W, strain KSS1
About 2,000 (36%) of roughly 5,500 compounds were called active. Inconclusive results (about 18%) are left out. No stated cut-off is given here; in the data, active means normalized growth mostly below about 0.91 (no sharp cut-off); inconclusive means no clear call, values can overlap the other calls; inactive means mostly above about 0.92. The list shows a part of the results.
Bench note: report the call from yes (1) (active), no (0) (inactive)

• Cc1ccc(S(=O)(=O)Nc2nc(-c3ccc(C)c(Cl)c3)c(C)s2)cc1 = no (0)

Task: Identify the outcome logged in this assay for the compound shown: O=C(NNc1ccccc1)c1cc(-c2ccc(Cl)cc2)oc1C(F)(F)F
Result: yes (1)

Task: Identify the outcome logged in this assay for the compound shown: O=C(Nc1ccncc1)c1cc(-c2ccccc2)oc1C(F)(F)F
Result: no (0)

Task: Identify the outcome logged in this assay for the compound shown: Cc1cccc(N=NC(C(=O)C(F)(F)F)=C(O)c2cccs2)c1
Result: no (0)

Task: Identify the outcome logged in this assay for the compound shown: CNC(=O)Sc1c(-c2ccc(Cl)cc2)nn(C(=O)NC)c1SC
Result: yes (1)

Task: Identify the outcome logged in this assay for the compound shown: Cc1ccc(NC(=S)C(C#N)C(=O)N2CCOCC2)c(C)c1 (stereo unspecified)
Result: no (0)

Task: Identify the outcome logged in this assay for the compound shown: N#Cc1ccc(Oc2sccc2[N+](=O)[O-])cc1
Result: no (0)

Task: Identify the outcome logged in this assay for the compound shown: Clc1cc(Cl)cc(C=NCc2ccccc2)c1
Result: yes (1)

Task: Identify the outcome logged in this assay for the compound shown: C[C@@H](Nc1ncnc2sc3c(c12)CCCC3)c1ccccc1
Result: no (0)

Task: Identify the outcome logged in this assay for the compound shown: COc1ccc(Nc2nc(NC(=O)Nc3ccc(Cl)cc3)n[nH]2)cc1
Result: no (0)

Task: Identify the outcome logged in this assay for the compound shown: N/C(=N/O)c1ccc(Oc2ccc(C3SCCS3)cc2)c([N+](=O)[O-])c1
Result: no (0)

###

Assay: chemical genetic growth profiling, strain panel (AID 1159580)
Details: S. cerevisiae deletion strains, growth OD, locus YKL101W, strain HSL1, active compounds read low
About 2,000 (36%) of roughly 5,500 compounds were called active. About 18% were inconclusive and are not listed. Some of the results follow.
Listing of recorded normalized growth by entry.
Quick one: just the number, no unit, thanks!

// known answers, use as guide
• O=C(Nc1cc(C(F)(F)F)cc(C(F)(F)F)c1)C(Cl)(Cl)Cl = 0.918
• CN(C)c1ccc(/C=C/c2ccc3ccccc3[n+]2C)cc1 = 0.815
• Cc1c(S(=O)(=O)Nc2cccc([N+](=O)[O-])c2)sc2ccc(Cl)cc12 = 0.981
• O=S(=O)(Nc1csc(C(F)(F)F)c1-c1ccccc1)c1cc(Br)c(Br)s1 = 0.79

Task: Tell me the measured normalized growth of Cc1noc(C)c1S(=O)(=O)Nc1csc(C(F)(F)F)c1-c1ccccc1 , please.
Result: 0.978

Task: Tell me the measured normalized growth of Cc1cccc(N=NC(C(=O)C(F)(F)F)=C(O)c2cccs2)c1 , please.
Result: 0.951

Task: Tell me the measured normalized growth of O=S(=O)(Nc1cc(Cl)c(Cl)cc1Cl)c1cc(C(F)(F)F)cc(C(F)(F)F)c1 , please.
Result: 0.902

Task: Tell me the measured normalized growth of Nc1ccccc1C(=O)Nc1cc(C(F)(F)F)cc(C(F)(F)F)c1 , please.
Result: 0.957

Task: Tell me the measured normalized growth of O=S(=O)(NCc1ccc(C(F)(F)F)cc1)c1cc(Br)c(Br)s1 , please.
Result: 0.714

Task: Tell me the measured normalized growth of O=S(=O)(NCc1ccc(C(F)(F)F)cc1)c1cccc(C(F)(F)F)c1 , please.
Result: 0.936

###

Experiment: chemical genetic growth profiling, strain panel (AID 1159580)
Conditions: S. cerevisiae deletion strains, growth OD, locus YHR129C, strain ARP1
Out of some 5,500 compounds screened, about 2,000 (36%) were called active. Another 18% or so got no clear call; they are omitted. No stated cut-off is given here; in the data, active means normalized growth mostly below about 0.91 (no sharp cut-off); inconclusive means no clear call, values can overlap the other calls; inactive means mostly above about 0.92. The list shows a part of the results.
Bench note: report the call from Yes for active, No for inactive

Task: Identify the outcome logged in this assay for the molecule shown: c1ccc2c(CC3=NCCN3)cccc2c1
Result: No

###

Assay: chemical genetic growth profiling, strain panel (AID 1159580)
Details: S. cerevisiae deletion strains, growth OD, locus YLR258W, strain gsy2
The whole screen tested about 5,500 compounds, of which about 2,000 (36%) were called active. Another 18% or so got no clear call; they are omitted. Rule as the data show it: active = normalized growth mostly below about 0.91 (no sharp cut-off); inconclusive = no clear call, values can overlap the other calls; inactive = mostly above about 0.92. This is one part of the list.
Bench note: report the call from active, inactive

* Clc1ccc(C(c2ccccc2Cl)C(Cl)Cl)cc1 (centres undefined) | inactive

Task: Identify the outcome logged in this assay for the compound shown: CN[C@@H]1C(OC2[C@H](O[C@H]3[C@H](O)[C@@H](O)[C@H](N=C(N)N)[C@@H](O)[C@@H]3N=C(N)N)OC(C)[C@]2(O)CO)OC(CO)C(O)C1O (some centres undefined)
Result: inactive

Task: Identify the outcome logged in this assay for the compound shown: COC[C@]12CN(C=O)C3[C@@H]4[C@H](OC)C1[C@]3(C1CC3(O)C(OC)C(O)C4(OC(C)=O)C1C3OC(=O)c1ccccc1)[C@@H](OC)C[C@H]2O (some centres undefined)
Result: inactive

Task: Identify the outcome logged in this assay for the compound shown: Cc1onc(-c2ccccc2)c1-c1ccc(S(N)(=O)=O)cc1
Result: inactive

Task: Identify the outcome logged in this assay for the compound shown: CN(C)C(=O)Oc1ccc[n+](C)c1
Result: inactive

Task: Identify the outcome logged in this assay for the compound shown: CC(C)=CC1C(C(=O)OCc2cccc(Oc3ccccc3)c2)C1(C)C (centres undefined)
Result: inactive

###

Assay: chemical genetic growth profiling, strain panel (AID 1159580);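 further: tested at 20 µM; growth read once vehicle control cultures reached saturation at 30 °C; 1 = growth at the plate median or of vehicle wells; lower values mean less growth of the strain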
Details: S. cerevisiae deletion strains, growth OD, locus YPR135W, strain CTF4, active compounds read low
The campaign covered roughly 5,500 compounds. About 2,000 (36%) were called active. Another 18% or so got no clear call; they are omitted. This is one part of the list.
MEASURE NAME: normalized growth
Quick one: just the number, no unit, thanks!

Task: Tell me the measured normalized growth of O=C1c2ccccc2C2(c3ccccc3)NCCN12 (configuration not stated) , please.
Result: 0.957

Task: Tell me the measured normalized growth of O=C(Oc1ccc(Cl)cc1Cl)c1c(Cl)cccc1Cl , please.
Result: 0.907

Task: Tell me the measured normalized growth of O=C(Nc1cc(C(F)(F)F)cc(C(F)(F)F)c1)C(c1ccccc1)C1CCCC1 (configuration not stated) , please.
Result: 1.01

Task: Tell me the measured normalized growth of CC12CCC3C(CC[C@H]4CC5(CCC34C)OCCO5)C1CCC2O (some centres not stated) , please.
Result: 0.832

Task: Tell me the measured normalized growth of O=C(CN1CCOCC1)Nc1cc(C(F)(F)F)cc(C(F)(F)F)c1 , please.
Result: 1.02

Task: Tell me the measured normalized growth of OCc1nccn1Cc1ccc(Cl)cc1 , please.
Result: 1.03

Task: Tell me the measured normalized growth of CC(C)(CC(=O)O)CC(=O)Nc1cc(C(F)(F)F)cc(C(F)(F)F)c1 , please.
Result: 1.06

###

Assay: chemical genetic growth profiling, strain panel (AID 1159580);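 further: tested at 20 µM; growth read once vehicle control cultures reached saturation at 30 °C; 1 = growth at the plate median or of vehicle wells; lower values mean less growth of the strain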
Conditions: S. cerevisiae deletion strains, growth OD, locus YGR078C, strain PAC10, active compounds read low
About 2,000 (36%) of roughly 5,500 compounds were called active. Not shown: some 18% with an inconclusive outcome. The list shows a part of the results.
Listing of recorded normalized growth by entry.
Quick one: just the number, no unit, thanks!

// known answers, use as guide
• NC(N)=NC(N)=Nc1ccccc1C(F)(F)F = 0.979
• CC(=O)C1CC[C@H]2C3CC[C@H]4C[C@H](O)CC[C@]4(C)C3CC[C@]12C (some centres undefined) = 0.969
• CC(=O)C1CCC2C3CCC4C[C@H](O)CCC4(C)C3C[C@H](O)C12C (some centres undefined) = 1.07
• Clc1ccc(Oc2ccnc3cc(Cl)ccc23)cc1 = 0.92
• O=C(O)C(O)C(O)C(=O)O (centres undefined) = 0.99
• NC(C(=O)O)C(O)C(=O)O (centres undefined) = 1.02

Task: Tell me the measured normalized growth of C[C@]12CCC3C(CC[C@H]4C[C@@H](O)CC[C@]34C)C1CC[C@@H]2O (some centres undefined) , please.
Result: 1

Task: Tell me the measured normalized growth of CC[C@H](CO)Nc1nc(NCc2ccccc2)c2ncn(C(C)C)c2n1 , please.
Result: 0.995

Task: Tell me the measured normalized growth of C[C@]12CCC3C(CC[C@H]4C[C@H](O)CC[C@]34C)C1CC[C@@H]2O (some centres undefined) , please.
Result: 0.908

###

Assay: chemical genetic growth profiling, strain panel (AID 1159580);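 further: tested at 20 µM; growth read once vehicle control cultures reached saturation at 30 °C; 1 = growth at the plate median or of vehicle wells; lower values mean less growth of the strain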
Settings: S. cerevisiae deletion strains, growth OD, locus YAL040C, strain CLN3, active compounds read low
In all, about 5,500 compounds went through this assay and about 2,000 (36%) were called active. Another 18% or so got no clear call; they are omitted. The list shows a part of the results.
MEASURE NAME: normalized growth
Quick one: just the number, no unit, thanks!

// known answers, use as guide
* NCCCCC(=O)O | 1.01
* CCCCCCCCCCC/C=C\C(C)(C)/C=C\CCCC(=O)O | 1.02
* NCCCC(=O)O | 0.965

Alright, here's another compound for you.
Task: Tell me the measured normalized growth of NCCCCCC(=O)O , please.
Result: 0.979
